# Test system: Pseudomonas aeruginosa
# PROTOCOL: MIC against clinical isolates
# Format: cell-based
# STATED_CONDITIONS: clinical isolate GN 2987; unit assumed
Recorded MIC by entry
MEASUREMENT_LABEL: MIC (µg/mL)

- CCN1CCN(C(=O)N[C@@H](C(=O)N[C@@H]2C(=O)N3[C@@H]2SC(C)(C)[C@@H]3C(=O)O)c2ccccc2)C(=O)C1=O: 12.5
- CCN1CCN(C(=O)NC(C(=O)NC2C(=O)N3C(C(=O)O)=C(CSc4nnnn4C)CSC23)c2ccccc2)C(=O)C1=O (stereo not shown): 12.5
- CN1CCN(C(=O)NC(C(=O)NC2C(=O)N3C(C(=O)O)=C(CSc4nnnn4C)CSC23)c2ccccc2)C(=O)C1=O (single isomer, unassigned): 25
- CC(C)N1CCN(C(=O)N[C@@H](C(=O)N[C@@H]2C(=O)N3[C@@H]2SC(C)(C)[C@@H]3C(=O)O)c2ccccc2)C(=O)C1=O (single isomer, unassigned): 3.13
- CC(=O)N1CCN(C(=O)N[C@@H](C(=O)N[C@@H]2C(=O)N3[C@@H]2SC(C)(C)[C@@H]3C(=O)O)c2ccccc2)C(=O)C1: 25
- CC(=O)OCC1=C(C(=O)O)N2C(=O)C(NC(=O)C(NC(=O)N3CCN(C)C(=O)C3=O)c3ccccc3)C2SC1 (single isomer, unassigned): 50

====

# Test system: Proteus vulgaris 3027
# PROTOCOL: MIC against standard strain, plate method
# Format: cell-based
# STATED_CONDITIONS: Proteus vulgaris 3027, standard strain; unit assumed
Recorded MIC by entry
MEASUREMENT_LABEL: MIC

* CC1(C)S[C@@H]2[C@H](NC(=O)[C@H](N)c3ccccc3)C(=O)N2[C@H]1C(=O)O [Sodium Ampicillin, SodiumAmpicillin, reference compound] | > 200 µg/mL
* CCN1CC(C)N(C(=O)NC(C(=O)NC2C(=O)N3C(C(=O)O)=C(CSc4nnnn4C)CSC23)c2ccccc2)C(=O)C1=O (stereo not drawn) | < 1.57 µg/mL
* CCCCN1CCN(C(=O)N[C@@H](C(=O)N[C@@H]2C(=O)N3[C@@H]2SC(C)(C)[C@@H]3C(=O)O)c2ccccc2)C(=O)C1 | < 1.57 µg/mL
